experimentDescription: recombinant UMI read abundance after kanamycin selection (control-corrected) (log10(CPM+1)); higher = more efficient recombination; extreme values may be limits of the assay; sequences stand for … in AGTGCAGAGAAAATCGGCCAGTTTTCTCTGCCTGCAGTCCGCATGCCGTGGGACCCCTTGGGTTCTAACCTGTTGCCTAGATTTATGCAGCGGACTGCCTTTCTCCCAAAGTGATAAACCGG…AGGTTGGTTTCACT; site = the 11-nt donor
This listing pairs sequences with measured recombinant UMI read abundance (log10).
Number only, no unit.

Observe how each entry below is paired with its result.
> print(dat)
                            monomersequence  numericvalue
1  TGGAAGTCATGGACCGGTTTTCCCGGTAATCCGTATTTGCA (site TGGAAGTCTTG)          3.25
2  TTCGTATCATGGACCGGTTTTCCCGGTAATCCGTATTTGAC (site CTAGTATCTGT)             0
3  CAACCAGCATGGACCGGTTTTCCCGGTAATCCGTATTTGCT (site CAAACAGCTAG)             0
4  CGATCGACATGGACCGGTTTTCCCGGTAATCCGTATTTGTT (site CGATCGGCTAA)       0.00691
5  ACAGTATCATGGACCGGTTTTCCCGGTAATCCGTATTTGCT (site ACAGTATCTCG)          1.11

Tell me the measured recombinant UMI read abundance (log10) of TCCAATTCATGGACCGGTTTTCCCGGTAATCCGTATTTGGC (site TCCAATTCTGT) , please.
0

Tell me the measured recombinant UMI read abundance (log10) of TCTACTGCATGGACCGGTTTTCCCGGTAATCCGTATTTGCC (site GCTACTGCTGG) , please.
0

Tell me the measured recombinant UMI read abundance (log10) of CCTCAAGCATGGACCGGTTTTCCCGGTAATCCGTATTTGAT (site CCTGAAGCTAT) , please.
0.00432

Tell me the measured recombinant UMI read abundance (log10) of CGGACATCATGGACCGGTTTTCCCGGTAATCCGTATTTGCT (site CGTACATCTAG) , please.
1.54

====

experimentDescription: recombinant barcode read abundance after kanamycin selection (control-corrected) (log10(CPM+1)); higher = more efficient recombination; sequences stand for … in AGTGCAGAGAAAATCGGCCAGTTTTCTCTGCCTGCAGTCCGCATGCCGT…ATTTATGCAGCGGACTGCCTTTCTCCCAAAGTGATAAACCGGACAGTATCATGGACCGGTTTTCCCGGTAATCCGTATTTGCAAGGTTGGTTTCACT; site = the 11-nt target
This listing pairs sequences with measured recombinant barcode read abundance (log10).
Number only, no unit.

Tell me the measured recombinant barcode read abundance (log10) of GGACACCCATGGGTTCTAACCTGTTGCCTAG [GGACACCCTAG_LTGcore_CA_RTGcore_CT] (site GGACACCCTAG) (LTG core: CA, RTG core: CT) , please.
0.765

Tell me the measured recombinant barcode read abundance (log10) of AAACACAAATGGGTTCTAACCTGTTGCCTTT [AAACACACTAG_LTGcore_AA_RTGcore_AA] (site AAACACACTAG) (LTG core: AA, RTG core: AA) , please.
0.0994

Tell me the measured recombinant barcode read abundance (log10) of CGAGCCCCTTGGGTTCTAACCTGTTGCTGCT [CGAGCCCCTCA_LTGcore_CT_RTGcore_AG] (site CGAGCCCCTCA) (LTG core: CT, RTG core: AG) , please.
0.203

Tell me the measured recombinant barcode read abundance (log10) of GGGAGCCTGTGGGTTCTAACCTGTTGCTGCA [GGGAGCCCTCA_LTGcore_TG_RTGcore_TG] (site GGGAGCCCTCA) (LTG core: TG, RTG core: TG) , please.
0.285

====

experimentDescription: recombinant barcode read abundance after kanamycin selection (control-corrected) (log10(CPM+1)); higher = more efficient recombination; sequences stand for … in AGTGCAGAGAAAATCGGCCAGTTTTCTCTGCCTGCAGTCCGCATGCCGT…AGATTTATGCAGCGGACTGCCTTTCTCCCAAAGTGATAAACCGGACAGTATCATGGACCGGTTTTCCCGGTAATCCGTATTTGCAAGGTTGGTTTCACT; site = the 11-nt target
assayEndpoint: recombinant barcode read abundance (log10)

> print(dat)
                            monomersequence  result
1  TGCGACTCTTGGGTTCTAACCTGTTGCCT (site TGCGACTCTAG)     1.5
2  AATAAGTCTTGGGTTCTAACCTGTTGCCT (site AGTAAGTCTAG)   0.566
3  CTCATGTCTTGGGTTCTAACCTGTTGCTT (site TTCATGTCTAA)   0.222
4  CCTTAGCCTTGGGTTCTAACCTGTTGCCT (site CCTTACCCTAG)  0.0511
5  ATGACCTCTTGGGTTCTAACCTGTTGCCT (site ATGGCCTCTAG)    0.46

Next up:
Tell me the measured recombinant barcode read abundance (log10) of GAATCAACTTGGGTTCTAACCTGTTGCTT (site GACTCGACTAA) , please.
0.119

====

experimentDescription: recombinant barcode read abundance after kanamycin selection (control-corrected) (log10(CPM+1)); higher = more efficient recombination; sequences stand for … in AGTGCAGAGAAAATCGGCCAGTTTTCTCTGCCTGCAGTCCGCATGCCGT…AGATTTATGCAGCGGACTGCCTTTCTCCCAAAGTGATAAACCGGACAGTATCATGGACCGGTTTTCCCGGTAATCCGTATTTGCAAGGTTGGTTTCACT; site = the 11-nt target
assayEndpoint: recombinant barcode read abundance (log10)
Number only, no unit.

Observe how each entry below is paired with its result.
> print(dat)
                            monomersequence  numericvalue
1  TACGAGGCTTGGGTTCTAACCTGTTGCCT (site TACGAGGCTAG)         0.406
2  TCGCCTTCTTGGGTTCTAACCTGTTGCCT (site TGGCCTTCTAG)         0.654
3  GGAGAACCTTGGGTTCTAACCTGTTGCCT (site TGAGAACCTAG)          1.56

Tell me the measured recombinant barcode read abundance (log10) of GAACACTCTTGGGTTCTAACCTGTTGCTG (site TAACACTCTAA) , please.
0.113

Tell me the measured recombinant barcode read abundance (log10) of CCTGTAGCTTGGGTTCTAACCTGTTGCCT (site CCTGTAGCTAG) , please.
1.13

====

This listing pairs sequences with measured recombinant barcode read abundance (log10).
experimentDescription: recombinant barcode read abundance after kanamycin selection (control-corrected) (log10(CPM+1)); higher = more efficient recombination; sequences stand for … in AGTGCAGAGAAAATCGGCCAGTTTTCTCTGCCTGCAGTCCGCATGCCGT…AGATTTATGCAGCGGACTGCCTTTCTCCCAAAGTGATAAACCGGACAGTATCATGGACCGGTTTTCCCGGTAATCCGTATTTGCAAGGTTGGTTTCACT; site = the 11-nt target
Number only, no unit.

> print(dat)
                            monomersequence  numericvalue
1  TTCCCGCCTTGGGTTCTAACCTGTTGCCT (site TTCGCGCCTAG)         0.489
2  TCTAGGACTTGGGTTCTAACCTGTTGCAA (site TCTAGGACTTT)          0.52
3  GACAGACCTTGGGTTCTAACCTGTTGCCT (site CACAGACCTAG)         0.193
4  GCCGAGTCTTGGGTTCTAACCTGTTGCTT (site GCCGAGTCTTA)           0.6
5  GCCCATGCTTGGGTTCTAACCTGTTGCGG (site GCCCATGCTCC)          2.05

Tell me the measured recombinant barcode read abundance (log10) of GACAGACCTTGGGTTCTAACCTGTTGCCT (site TACAGACCTAG) , please.
0.425

Tell me the measured recombinant barcode read abundance (log10) of GGGTTCACTTGGGTTCTAACCTGTTGCCG (site GAGTTCACTAG) , please.
0.0415

Tell me the measured recombinant barcode read abundance (log10) of TCGAGTACTTGGGTTCTAACCTGTTGCCT (site TCGAGTTCTAG) , please.
0.404

Tell me the measured recombinant barcode read abundance (log10) of TGCATAGCTTGGGTTCTAACCTGTTGCCA (site CTTGCGACTAA) , please.
0.068

Tell me the measured recombinant barcode read abundance (log10) of GGGGACCCTTGGGTTCTAACCTGTTGCGG (site GGGGACCCTGC) , please.
0.667

Tell me the measured recombinant barcode read abundance (log10) of TGTTGGACTTGGGTTCTAACCTGTTGCTT (site TCTTAGACTAA) , please.
0.0262

Tell me the measured recombinant barcode read abundance (log10) of CTACTAGCTTGGGTTCTAACCTGTTGCAA (site CTACTAGCTAT) , please.
0.196

Tell me the measured recombinant barcode read abundance (log10) of TAGCTCCCTTGGGTTCTAACCTGTTGCCG (site TAGCTCCCTGG) , please.
0.238

Tell me the measured recombinant barcode read abundance (log10) of CTCAGGTCTTGGGTTCTAACCTGTTGCCT (site CTCAGGTCTTG) , please.
0.197

Tell me the measured recombinant barcode read abundance (log10) of CCTACAGCTTGGGTTCTAACCTGTTGCCT (site CCTACAACTAG) , please.
0.363

Tell me the measured recombinant barcode read abundance (log10) of CCTAAGACTTGGGTTCTAACCTGTTGCCC (site CCTAAGACTAG) , please.
0.23

Tell me the measured recombinant barcode read abundance (log10) of CATTCTGCTTGGGTTCTAACCTGTTGCCT (site CAGTCTGCTAG) , please.
0.136

Tell me the measured recombinant barcode read abundance (log10) of TGTAGCACTTGGGTTCTAACCTGTTGCAC (site TGTAGCACTGT) , please.
0.0233

Tell me the measured recombinant barcode read abundance (log10) of AGGTTTGCTTGGGTTCTAACCTGTTGCCT (site AGGTCTGCTAG) , please.
0.471

Tell me the measured recombinant barcode read abundance (log10) of CCAAGGCCTTGGGTTCTAACCTGTTGCCT (site CCAAGGCCTAG) , please.
0.0291

Tell me the measured recombinant barcode read abundance (log10) of TAGCCCTCTTGGGTTCTAACCTGTTGCAA (site TAGCCCTCTTT) , please.
2.02
